Tested on: HEK-293T
Experiment: Multiplex assay against HEK293T
Type: toxicity, cell-based
Settings: human, 12 h, 10 µM, compound concentration 10 uM, replicate 2
Field: Population Membrane Permeable-Phenotype (%). Provide a value for each of the compounds that follow.
Your answer is read as %, so omit the unit and give the number.

Check the records and state Population Membrane Permeable-Phenotype (%) for CCc1nn(CCCN2CCN(c3cccc(Cl)c3)CC2)c(=O)n1CCOc1ccccc1.Cl [NEFAZODONE HYDROCHLORIDE]
0

Check the records and state Population Membrane Permeable-Phenotype (%) for CC(C)Oc1ccccc1C(=O)Nc1ccccc1C(=O)Nc1cccc(S(=O)(=O)C(F)(F)F)c1
9

Check the records and state Population Membrane Permeable-Phenotype (%) for O=c1[nH]c2ccccc2n1C1CCN(Cc2ccc(-c3[nH]c4cc5ncnc5cc4nc3-c3ccccc3)cc2)CC1
13

Check the records and state Population Membrane Permeable-Phenotype (%) for CCCSc1nc(N[C@@H]2C[C@H]2c2ccc(F)c(F)c2)c2nnn([C@@H]3C[C@H](OCCO)[C@@H](O)[C@H]3O)c2n1
2

Check the records and state Population Membrane Permeable-Phenotype (%) for CCc1ccc(OCc2ccccc2C(=O)Nc2ccc3nc(C)cc(N)c3c2)cc1.Cl
11

Check the records and state Population Membrane Permeable-Phenotype (%) for CC(C)c1noc(N2CCC(COc3ccc(-c4ccc(S(C)(=O)=O)cc4)nc3)CC2)n1
8

Check the records and state Population Membrane Permeable-Phenotype (%) for COc1cc(Nc2nccc(-c3cnn4nc(OC)ccc34)n2)cc(C(F)(F)F)c1
4

Check the records and state Population Membrane Permeable-Phenotype (%) for CNCc1ccccc1-c1csc([C@@H](C)Nc2nc(C)nc3cc(OC)c(OC)cc23)c1
7

Check the records and state Population Membrane Permeable-Phenotype (%) for C=CC(=O)Nc1cccc(Sc2nc(Nc3ccc(N4CCN(C)CC4)cc3)ncc2Cl)c1
5

Check the records and state Population Membrane Permeable-Phenotype (%) for Cl.O=C(O)c1cc(-c2ccc(C3CCNCC3)cc2)c2ccc(-c3ccc(C(F)(F)F)cc3)cc2c1
20

Check the records and state Population Membrane Permeable-Phenotype (%) for CNC(=O)Nc1ccc(-c2nc(N3CC4CCC(C3)O4)c3cnn(C4CCC5(CC4)OCCO5)c3n2)cc1
6

Check the records and state Population Membrane Permeable-Phenotype (%) for CC(C)OC(=O)N1CCC(Oc2ncnc3c2cnn3-c2ccc(S(C)(=O)=O)cc2F)CC1
8

Check the records and state Population Membrane Permeable-Phenotype (%) for C[C@]12CC[C@@H]3c4ccc(O)cc4CC[C@H]3[C@@H]1CC[C@@H]2O
1

Check the records and state Population Membrane Permeable-Phenotype (%) for C=CC(=O)Nc1ccc2[nH]c(=O)n(C3CCN(Cc4ccc(-c5nc6cc[nH]c(=O)c6cc5-c5ccccc5)cc4)CC3)c2c1
12

Check the records and state Population Membrane Permeable-Phenotype (%) for Cc1nc(N2CC[C@H](O)C2)ncc1-c1cc(C(F)(F)F)cc2[nH]ncc12
1

Check the records and state Population Membrane Permeable-Phenotype (%) for Cc1c[nH]c2nccc(Oc3c(F)cc(Nc4cc(Cl)nc(N)n4)cc3F)c12
0

Check the records and state Population Membrane Permeable-Phenotype (%) for Cc1cccc(CN2CCN(C(c3ccccc3)c3ccc(Cl)cc3)CC2)c1.Cl.Cl (configuration not stated)
6
